// data source = PubChem BioAssay (NCI)

# System: IGROV1 ovarian
# test: NCI tumour cell line growth inhibition, 48 h; in the data active = GI50 below about 0.43 µM; inactive = the rest
Outcomes you can answer with include only these: active, inactive

Task: Can you look up the reported call for Cc1cc2nc3c4cc(O)ccc4n(CCN(C)C)c3nc2cc1C for me?
Output: inactive

Task: Next entry: Cc1nc([P+](c2ccccc2)(c2ccccc2)c2ccccc2)c(Sc2sc(-c3ccccc3)nc2[P+](c2ccccc2)(c2ccccc2)c2ccccc2)o1
Output: inactive

Task: Next entry: Cc1cc(O)c(=O)cc2c1C[C@H]1CC(C)(C)/C=C/C[C@]3(C)Oc4cc(=O)c(O)cc(C)c4C[C@H]3C[C@H](O)[C@@]1(C)O2
Output: active

Task: Next entry: CC(=O)Nc1ccc2c(c1)C(c1ccccc1Cl)=Nc1c(n[nH]c1C)N2
Output: inactive

Task: Next entry: O=C(Nc1ccc2[nH]nc(-c3ccncc3)c2c1)[C@@H]1CCN(CC(=O)N2CCN(c3ccc(-c4ncccn4)cc3)CC2)C1
Output: inactive

Task: Next entry: CC(=O)c1ccc2c(c1)c1cc(C(C)=O)ccc1n2CCNC(C)C
Output: active

Task: Next entry: CCCCCCCCCCCCOC1C(CNC(=O)C2OC3OC(C)(C)OC3C2NC(=O)Nc2ccc(CC(=O)OC)cc2)OC2OC(C)(C)OC21 (stereo not drawn)
Output: inactive

Task: Next entry: COC[C@@H](N=C1NC(=O)/C(=C/c2ccc3ncccc3c2)S1)c1ccccc1
Output: inactive

---

# System: BT-549 breast
# test: NCI tumour cell line growth inhibition, 48 h
Could you please report measured TGI for the items listed next?
Reply numerically in µM, unit not repeated.

Task: Please report the recorded TGI for CC(ON(C(c1ccccc1)C(C)C)C(C)(C)C)c1ccccc1 (stereo unspecified) .
Output: 28.7

Task: Next entry: O=C(Cc1ccc(/C=C/C(=O)c2ncc[nH]2)cc1)Nc1ccc(F)cc1
Output: 11.3

Task: Next entry: CC(=O)OC1CC[C@@]2(C)C(=CC[C@@H]3[C@@H]2CC[C@]2(C)Nc4nn(S(C)(=O)=O)cc4C[C@@H]32)C1 (stereo partly specified)
Output: 45

Task: Next entry: Cc1cc2nc3c4cc(O)ccc4n(CCN(C)C)c3nc2cc1C
Output: 6.27

Task: Next entry: CCOc1cc(C2SCC(=O)N2c2ccc(Oc3ccc(Cl)cc3)c(Cl)c2)ccc1O (stereo unspecified)
Output: 31.5

Task: Next entry: CS(=O)(=O)Nc1cncc(-c2ccc3ncnc(Nc4ccc(F)c(Cl)c4)c3c2)c1
Output: 7.98

Task: Next entry: CCc1ccccc1N=NC(=O)NNc1ccccc1CC
Output: 34.3

Task: Next entry: COc1c(CC=C(C)C)c(O)c(C(CC(C)C)c2c(O)c3c(c(C(C)=O)c2O)OC(C(C)(C)O)C3)c(O)c1C(C)=O (stereo unspecified)
Output: 9.49

Task: Next entry: CCOC(=O)C(/C(=N/S(=O)(=O)c1cc(C)c(Cl)cc1[S-])[n+]1ccc(N(C)C)cc1)=C(/O)c1ccc([N+](=O)[O-])cc1
Output: 92.7

---

# System: KM12 colon
# test: NCI tumour cell line growth inhibition, 48 h
Could you please report measured TGI for the items listed next?

Task: Please report the recorded TGI for CC(C)OC(=O)c1ccc(CCC2=CC(=O)C=CC2=O)cc1 .
Output: 27 µM

Task: Next entry: Cc1cc(S(=O)(=O)Nc2n[nH]c(Nc3ccc(Cl)cc3)n2)c(S)cc1Cl
Output: > 100 µM

Task: Next entry: Nc1ncnc2c1ncn2[C@]1(CO)C=C(CO)C(O)C1O (stereo partly specified)
Output: > 100 µM

Task: Next entry: O=C1C2Nc3ccccc3SC2C(=O)N1c1ccc(Br)cc1 (stereo unspecified)
Output: > 100 µM

Task: Next entry: O=C1NC(N2CCOCC2)=N/C1=C\c1ccc(Cl)cc1
Output: > 100 µM

Task: Next entry: O=c1[nH]c(Nc2ccc(Cl)c(C(F)(F)F)c2)nc2nc[nH]c12
Output: > 100 µM

Task: Next entry: O=C1NC(=O)C(F)(n2cc(F)c(=O)[nH]c2=O)C(O)N1 (stereo unspecified)
Output: > 10 µM

Task: Next entry: O=C1CSC(/C=C/c2ccccc2)N1c1nc2cc3sc(N4C(=O)CSC4/C=C/c4ccccc4)nc3cc2s1 (stereo unspecified)
Output: > 100 µM

Task: Next entry: COc1ccc(C(c2cc(OC)c(OC)c(OC)c2)n2ccnc2)cc1O (stereo unspecified)
Output: > 100 µM

Task: Next entry: Cc1coc2c1C[C@@]1(C)[C@H](CCC[C@@H]1C)[C@H]2O
Output: > 100 µM

Task: Next entry: N#Cc1cccc2c1Nc1ccccc1S2
Output: > 100 µM
